B1: Hairpin Ribozyme (parent)
chain: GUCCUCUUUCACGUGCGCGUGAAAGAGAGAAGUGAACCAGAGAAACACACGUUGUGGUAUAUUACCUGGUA

# Variants of: B1
# method_summary: self-cleavage, relative activity (ratio to wild type); higher = more cleavage; co-transcriptional
// self-cleavage lookup, one value per entry
Lab note: record the figure alone, no unit after it.

GUCCUCUUUCACGUGCGCGUGAAAAAGAGAAGUGAACCAGAGAAACACACAUUGUGGUAUAUUACCUGGUA [G25A G51A]: 0.586
GUCCUCUUUCACGUGCGCGUGAAAGAGAGAAGUGAAUCAGAGAAACACACGUUGUCGUAUAUUACCUGGUA [C37U G56C]: 0.198
GUCCUCUUUCACGUGCGCGUUCAAGAGAGAAGUGAACCAGAGAAACACACGUUGUGGUAUAUUACCUGGUA [G21U A22C]: 0.763
GUCCUCGUUCCCGUGCGCGUGAAAGAGAGAAGUGAACCAGAGAAACACACGUUGUGGUAUAUUACCUGGUA [U7G A11C]: 0.481
GUCCUCUUGCACGUGCGCGUGAAAGAGAGAAGUGAACCAGACAAACACACGUUGUGGUAUAUUACCUGGUA [U9G G42C]: 0.239
GUCCUCUUUCACGUGCGCGUGAAAGAGAGAAGUGAACCAGAGAAAUACAUGUUGUGGUAUAUUACCUGGUA [C46U C50U]: 0.227
GUCCUCUUUCACGUGCGCGUGAAAUAGAGAAGUGAACCAGAGAAACACACGUUGUGGUCUAUUACCUGGUA [G25U A59C]: 0.195
GUCCUCUUUCACGGGCGAGUGAAAGAGAGAAGUGAACCAGAGAAACACACGUUGUGGUAUAUUACCUGGUA [U14G C18A]: 0.941

Requested read-out: self-cleavage. Entry: GUCCUCUUUCACGUGCGCGUGAAGGAGAGAAGUGAACCAGAGAAACACACGUUGUGGUGUAUUACCUGGUA [A24G A59G]
0.272

Same for GUCCUCUGUCACGUGCGCGUGAAAGAGAGAAGUGAACCACAGAAACACACGUUGUGGUAUAUUACCUGGUA [U8G G40C]
0.111

Same for GUGCUCUUUCACGUGCGCGUGAAAGAGAGAAGUGAACCAGAGAAAGACACGUUGUGGUAUAUUACCUGGUA [C3G C46G]
0.0681

Same for GUCCUCUUUCACGUGCGCGUAAAAGAGAGAAGUGAACCAGAGAAACCCACGUUGUGGUAUAUUACCUGGUA [G21A A47C]
0.402

Same for GUCCUCUUUCACGUGCGCGUGAAAGAGAGAGGUGAACCAGAGUAACACACGUUGUGGUAUAUUACCUGGUA [A31G A43U]
0.11

Same for GUCCUCUUUCACGUGCGCGUGAAAGAGAGAAGUGAACCAGAGAAACACAUGUUGUGUUAUAUUACCUGGUA [C50U G57U]
0.183

Same for GUCCUCUUUCACGUGCGCGUGAAAGAGAGAAGCGAACCAGAGAAACACACGUUGUGGUGUAUUACCUGGUA [U33C A59G]
0.083

Same for GUCCUCUUUCACGUGCGCGUGAGAGAGAGAAGUGAAGCAGAGAAACACACGUUGUGGUAUAUUACCUGGUA [A23G C37G]
0.311

Same for GUCCUCUUUCACGUGCGCGUGAAAGAGAGAAGUGAACCAGAGAUACGCACGUUGUGGUAUAUUACCUGGUA [A44U A47G]
0.0154

Same for AUCCUCUUUCACGUGCGCGUGAAAGAGAGAAGUGAACCAGUGAAACACACGUUGUGGUAUAUUACCUGGUA [G1A A41U]
0.225

Same for GUCCUCUUUCAAGUGCGCGUGAAAGAGAGAAGUGAACCAGAGAAACACACGCUGUGGUAUAUUACCUGGUA [C12A U52C]
0.768

Same for GUCCUCUUUCACGUGCGCGUGAAAGAGAGAAGUGAACCAGAGAAACUCACGUAGUGGUAUAUUACCUGGUA [A47U U53A]
0.133

Same for GUCCUCUUUCACGUGCGCGUGAAAGAGAGAAGUGAACCAUAGAAACACACGUUGUGGUGUAUUACCUGGUA [G40U A59G]
0.115

Same for GUCCUCUUUCACGUGCGCGUGAAAGUGAGAAGUGAACCAGAGAAACACACGUUGUGGUCUAUUACCUGGUA [A26U A59C]
0.137
